Hi there, I'd appreciate the recorded λmax for every entry that follows.
Test: Absorption spectrum measured in solution
Marks after values point to notes of the source that are not given here.

# annotated cases, reported λmax shown
CCN(CC)c1ccc(N=Nc2nc(C#N)c(C#N)n2C)c([N-]S(=O)(=O)N(C)C)c1.CCN(CC)c1ccc(N=Nc2nc(C#N)c(C#N)n2C)c([N-]S(=O)(=O)N(C)C)c1.[Ni+2]    540 nm
CCN(CC)c1cc([N]([Ni][N](c2cc(N(CC)CC)c(C)cc2N=Nc2nc(-c3ccccc3)ns2)S(=O)(=O)N(C)C)S(=O)(=O)N(C)C)c(N=Nc2nc(-c3ccccc3)ns2)cc1C    552^5) nm

Next item in the queue.
Data request: // lookup λmax for CCN(CC)c1ccc(N=Nc2nc(C#N)c(C#N)n2C)c([N-]P(=O)(OCC(F)(F)C(F)F)OCC(F)(F)C(F)F)c1.CCN(CC)c1ccc(N=Nc2nc(C#N)c(C#N)n2C)c([N-]P(=O)(OCC(F)(F)C(F)F)OCC(F)(F)C(F)F)c1.[Co+2]
Data returned: 538^5) nm

====

Test: Absorption spectrum measured in solution
Hi there, I'd appreciate the recorded λ1/2-λ1/10 for every entry that follows.
Please report the result as a number followed by the unit.

# annotated cases, reported λ1/2-λ1/10 shown
CCN(CC)c1ccc(N=Nc2nc(C#N)c(C#N)n2C)c([N-]S(=O)(=O)N(C)C)c1.CCN(CC)c1ccc(N=Nc2nc(C#N)c(C#N)n2C)c([N-]S(=O)(=O)N(C)C)c1.[Co+2] [Example 16]    33 nm
CCN(CC)c1ccc(N=Nc2nc(-c3ccccc3)ns2)c([N]([Ni][N](c2cc(N(CC)CC)ccc2N=Nc2nc(-c3ccccc3)ns2)P(=O)(OC)c2ccccc2)P(=O)(OC)c2ccccc2)c1 (centres unmarked) [Example 23]    61 nm
CCN(CC)c1ccc(N=Nc2nc(C#N)c(C#N)n2C)c([N-]P(=O)(OCC(F)(F)C(F)F)OCC(F)(F)C(F)F)c1.CCN(CC)c1ccc(N=Nc2nc(C#N)c(C#N)n2C)c([N-]P(=O)(OCC(F)(F)C(F)F)OCC(F)(F)C(F)F)c1.[Co+2] [Example 3]    33 nm
CCN(CC)c1ccc(N=Nc2nc(C#N)c(C#N)n2C)c([N-]S(=O)(=O)N(C)C)c1.CCN(CC)c1ccc(N=Nc2nc(C#N)c(C#N)n2C)c([N-]S(=O)(=O)N(C)C)c1.[Ni+2] [Example 15]    21 nm

Next item in the queue.
Data request: // lookup λ1/2-λ1/10 for CCN(CC)c1ccc(N=Nc2nc(C#N)c(C#N)n2C)c([N-]S(=O)(=O)N(C)C)c1.CCN(CC)c1ccc(N=Nc2nc(C#N)c(C#N)n2C)c([N-]S(=O)(=O)N(C)C)c1.[Zn+2] [Example 17]
Data returned: 12 nm

====

Hi there, I'd appreciate the recorded λ1/2-λ1/10 for every entry that follows.
Experiment: Absorption spectrum measured in solution
Give bare numbers, in nm.

# annotated cases, reported λ1/2-λ1/10 shown
CCN(CC)c1ccc(N=Nc2nc(-c3ccccc3)ns2)c([N-]S(=O)(=O)N(C)C)c1.CCN(CC)c1ccc(N=Nc2nc(-c3ccccc3)ns2)c([N-]S(=O)(=O)N(C)C)c1.[Co+2]    32
CCN(CC)c1ccc(N=Nc2nc(C#N)c(C#N)n2C)c([N-]P(=O)(OCC(F)(F)C(F)F)OCC(F)(F)C(F)F)c1.CCN(CC)c1ccc(N=Nc2nc(C#N)c(C#N)n2C)c([N-]P(=O)(OCC(F)(F)C(F)F)OCC(F)(F)C(F)F)c1.[Cu+2]    29

Next item in the queue.
Data request: // lookup λ1/2-λ1/10 for CCN(CC)c1ccc(N=Nc2nc(C#N)c(C#N)[nH]2)c([N-]P(=O)(OCC(F)(F)C(F)F)OCC(F)(F)C(F)F)c1.CCN(CC)c1ccc(N=Nc2nc(C#N)c(C#N)[nH]2)c([N-]P(=O)(OCC(F)(F)C(F)F)OCC(F)(F)C(F)F)c1.[Ni+2]
Data returned: 21

====

Assay: Absorption spectrum measured in solution
quantity-name: λmax (nm)
Numbers only, in nm.

CCN(CC)c1ccc(N=Nc2nc(C#N)c(C#N)n2C)c([N-]S(=O)(=O)N(C)C)c1.CCN(CC)c1ccc(N=Nc2nc(C#N)c(C#N)n2C)c([N-]S(=O)(=O)N(C)C)c1.[Co+2]    543

Next item in the queue.
Data request: // lookup λmax for CCN(CC)c1cc([N]([Ni][N](c2cc(N(CC)CC)c(OC)cc2N=Nc2nc(-c3ccccc3)ns2)S(=O)(=O)N(C)C)S(=O)(=O)N(C)C)c(N=Nc2nc(-c3ccccc3)ns2)cc1OC
Data returned: 544

====

Experiment: Absorption spectrum measured in solution
quantity-name: λmax (nm)
Answers are plain numbers, in nm.

CCN(CC)c1ccc(N=Nc2nc(-c3ccccc3)ns2)c([N-]S(=O)(=O)N(C)C)c1.CCN(CC)c1ccc(N=Nc2nc(-c3ccccc3)ns2)c([N-]S(=O)(=O)N(C)C)c1.[Co+2]    551

Data request: // lookup λmax for CCN(CC)c1ccc(N=Nc2nc(-c3ccccc3)ns2)c([N-]S(=O)(=O)N(C)C)c1.CCN(CC)c1ccc(N=Nc2nc(-c3ccccc3)ns2)c([N-]S(=O)(=O)N(C)C)c1.[Ni+2]
Data returned: 530

====

Test: Absorption spectrum measured in solution
quantity-name: ε (L/mol/cm)
One number for each entry, in L/mol/cm.

# annotated cases, reported ε shown
CCN(CC)c1ccc(N=Nc2nc(C#N)c(C#N)n2C)c([N-]P(=O)(OCC(F)(F)C(F)F)OCC(F)(F)C(F)F)c1.CCN(CC)c1ccc(N=Nc2nc(C#N)c(C#N)n2C)c([N-]P(=O)(OCC(F)(F)C(F)F)OCC(F)(F)C(F)F)c1.[Cu+2]    88071
CCN(CC)c1ccc(N=Nc2nc(-c3ccccc3)ns2)c([N-]S(=O)(=O)N(C)C)c1.CCN(CC)c1ccc(N=Nc2nc(-c3ccccc3)ns2)c([N-]S(=O)(=O)N(C)C)c1.[Ni+2]    86514
CCN(CC)c1ccc(N=Nc2nc(-c3ccccc3)ns2)c([N]([Ni][N](c2cc(N(CC)CC)ccc2N=Nc2nc(-c3ccccc3)ns2)P(=O)(OC)c2ccccc2)P(=O)(OC)c2ccccc2)c1 (centres unmarked)    90126

Fill in ε for each of the 2 compounds listed.
1. CCN(CC)c1ccc(N=Nc2nc(C#N)c(C#N)n2C)c([N-]S(=O)(=O)N(C)C)c1.CCN(CC)c1ccc(N=Nc2nc(C#N)c(C#N)n2C)c([N-]S(=O)(=O)N(C)C)c1.[Zn+2]
2. CCN(CC)c1ccc(N=Nc2nc(C#N)c(C#N)n2C)c([N-]S(=O)(=O)N(C)C)c1.CCN(CC)c1ccc(N=Nc2nc(C#N)c(C#N)n2C)c([N-]S(=O)(=O)N(C)C)c1.[Ni+2]

Data returned:
111931
107238

====

Assay: Absorption spectrum measured in solution
Marks after values point to notes of the source that are not given here.
quantity-name: λmax

CCN(CC)c1ccc(N=Nc2nc(C#N)c(C#N)[nH]2)c([N-]P(=O)(OCC(F)(F)C(F)F)OCC(F)(F)C(F)F)c1.CCN(CC)c1ccc(N=Nc2nc(C#N)c(C#N)[nH]2)c([N-]P(=O)(OCC(F)(F)C(F)F)OCC(F)(F)C(F)F)c1.[Ni+2]    510^4) nm
CCN(CC)c1ccc(N=Nc2nc(-c3ccccc3)ns2)c([N]([Ni][N](c2cc(N(CC)CC)ccc2N=Nc2nc(-c3ccccc3)ns2)P(=O)(OC)c2ccccc2)P(=O)(OC)c2ccccc2)c1 (stereo not drawn)    538^5) nm

Next item in the queue.
Data request: // lookup λmax for CCN(CC)c1ccc(N=Nc2nc(C#N)c(C#N)n2C)c([N-]P(=O)(OCC(F)(F)C(F)F)OCC(F)(F)C(F)F)c1.CCN(CC)c1ccc(N=Nc2nc(C#N)c(C#N)n2C)c([N-]P(=O)(OCC(F)(F)C(F)F)OCC(F)(F)C(F)F)c1.[Cu+2]
Data returned: 533^5) nm
